Biological target: human PAD4 (Homo sapiens)
Construct: human PAD4 (NM_012387), A2P663, was PCR amplified; His-SUMO (N, cleaved yes)
Sequence (Q9UM07 2-663): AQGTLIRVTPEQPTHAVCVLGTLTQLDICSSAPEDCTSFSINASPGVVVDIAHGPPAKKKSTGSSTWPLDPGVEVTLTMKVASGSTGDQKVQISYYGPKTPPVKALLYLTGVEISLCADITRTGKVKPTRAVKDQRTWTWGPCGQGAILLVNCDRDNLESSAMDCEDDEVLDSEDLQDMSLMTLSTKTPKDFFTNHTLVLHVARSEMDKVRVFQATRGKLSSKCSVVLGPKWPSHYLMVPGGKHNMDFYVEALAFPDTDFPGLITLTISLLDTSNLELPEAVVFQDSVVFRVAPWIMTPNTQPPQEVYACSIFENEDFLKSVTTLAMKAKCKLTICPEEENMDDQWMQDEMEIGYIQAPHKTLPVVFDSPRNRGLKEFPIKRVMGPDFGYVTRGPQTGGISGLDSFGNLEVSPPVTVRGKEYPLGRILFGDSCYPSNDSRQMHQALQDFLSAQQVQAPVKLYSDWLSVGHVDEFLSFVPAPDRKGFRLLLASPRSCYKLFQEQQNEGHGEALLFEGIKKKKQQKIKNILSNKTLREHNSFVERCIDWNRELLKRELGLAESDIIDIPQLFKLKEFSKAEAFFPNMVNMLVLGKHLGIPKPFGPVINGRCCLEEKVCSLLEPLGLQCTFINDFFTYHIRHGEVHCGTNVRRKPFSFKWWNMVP
Experiment: In vitro PAD4 BAEE biochemical assay
Details: human PAD4, BAEE substrate; 5 nM PAD4, 2 mM calcium chloride, 3 mM BAEE; geometric mean of multiple experiments
pIC50: −log10 of the molar value.
MEASURE: pIC50

Consider the worked cases shown below.
COMPOUND	NUMERIC READOUT
COc1cc(C(=O)N2[C@H]3CC[C@@H]2[C@H](N)C3)cc2nc(-c3cc4ccc([C@@H](C)NC(=O)NC5(C)CC(F)(F)C5)nc4n3CC3CC3)c(C)n12 [Example 212]	7.19
COc1cc(C(=O)N2[C@H]3CC[C@@H]2[C@H](N)C3)cc2nc(-c3cc4ccc(C(C)(C)N)nc4n3CC3CC3)c(C)n12 [Example 570]	6.64
CCc1ccc2cc(-c3nc4cc(C(=O)N5CCC[C@@H](N)C5)cc(OC)n4c3N)n(CC3CC3)c2n1 [Example 553]	6.12
COc1cc(C(=O)N2CCC[C@@H](N)C2)cc2nc(-c3cc4ccc(OC5CCN(C)C5=O)nc4n3CC3CC3)c(C)n12 (stereo partly drawn) [Example 623]	6.88

I = COc1cc(C(=O)N2CC[C@H]3CCN[C@H]3C2)cc2nc(-c3cc4ccc(N(C(F)F)S(C)(=O)=O)nc4n3CC3CC3)c(C)n12 [Example 325]
II = COc1cc(C(=O)N2[C@H]3CC[C@@H]2[C@H](N)C3)cc2nc(-c3cc4ccc([C@@H](C)NC(=O)N5CCC(F)(F)C5)nc4n3CC3CC3)c(C)n12 [Example 243]
Determine, for I and II , which has the greater value of pIC50. Returns: label corresponding to the selected item.
II

Data origin, for the record: patent US12240862B2
